Biological target: Clostridium difficile toxin A, soluble full-length (TechLab) (Clostridium difficile, UniProt P16154 1-2710)
Experiment: cell-based or functional assay
REPORTED METRIC: IC50, Vero cell viability (neutralization), Trial 1, 32 pM Toxin A (pM)

BINDER: H2M3124N (antibody, V domains shown, also called H2aM3124N; H1M3124N) VH: EIQLIESGGDMVQPGGSLRLSCAASGISLNSYEMNWVRQTPGMGLEWISHISSSGTSIYYANSVKGRFTIFRDSAKNSLLLQMNSLRAEDTAIYYCARERYDHSGYYYLGMDVWGLGTTVTVSS VL: DIQMTQSPSTLSASLGDRVTITCRASQNIDNWMAWYQQKVGKAPKLLIYRASTLETGVPSRFGGSGFGTEFTLTISSLQPGDFATYYCQEYNSYFRTFGQGTKVEIK
UNITS LABEL: pM
TEST RESULT: 41
